- test_system: MET kinase (c-MET), kinase domain of human Met (Homo sapiens, UniProt P08581)
- Sequence (P08581 1078-1345 limits assumed): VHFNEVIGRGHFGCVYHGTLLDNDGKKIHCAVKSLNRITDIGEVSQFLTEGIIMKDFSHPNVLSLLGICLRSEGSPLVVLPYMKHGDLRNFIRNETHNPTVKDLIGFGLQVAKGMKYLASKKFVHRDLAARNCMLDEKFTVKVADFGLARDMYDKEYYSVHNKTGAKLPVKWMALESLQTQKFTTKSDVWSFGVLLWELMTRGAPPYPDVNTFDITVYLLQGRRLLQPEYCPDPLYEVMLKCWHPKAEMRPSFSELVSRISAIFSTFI
endpoint_label: IC50

Some entries whose results are on file:
compound_structure_string: Cc1ccc2nnc(Cc3ccc4ncc(-c5cnn(CCN6CCOCC6)c5)cc4c3)n2n1
reading: < 100 nM

compound_structure_string: CCc1cnc2ccc(Cc3nnc4ccc(C)nn34)cc2c1
reading: < 100 nM

compound_structure_string: Cc1ccc2nnc(Cc3ccc4ncc(-c5cnn(C6CCNCC6)c5)cc4c3)n2n1
reading: < 100 nM

compound_structure_string: Cc1cc(F)cc(-c2ccc3nnc(Cc4ccc5ncccc5c4)n3n2)c1
reading: < 100 nM

compound_structure_string: c1cnc2ccc(Cc3nnc4ccc(N5CCCCC5)nn34)cc2c1
reading: 100 to 1000 nM

*Q* Would you mind telling me what IC50 value was observed for `Cc1ccc2nnc(Cc3ccc4ncc(-c5cnn(CC(N)=O)c5)cc4c3)n2n1` ?
*A* < 100 nM

*Q* Tell me the measured IC50 of `Fc1cccc(-c2ccc3nnc(Cc4ccc5ncsc5c4)n3n2)c1` , please.
*A* 1000 to 10000 nM

---

Please consider the recorded pIC50 for MET kinase (c-MET), kinase domain of human Met (Homo sapiens, UniProt P08581) in what follows.
pIC50: −log10 of the molar value.

// below: answered molecules
molecule: Fc1ccc(Oc2ccc3nnc(Cc4ccc5ncccc5c4)n3n2)cc1F
pIC50: 6.00 to 7.00
//
molecule: CC(c1ccc2ncccc2c1)c1nnc2ccc(-c3cccc(F)c3)nn12 (stereo not drawn)
pIC50: > 7.00
//
molecule: CS(=O)(=O)Nc1cccc(-c2ccc3nnc(Cc4ccc5ncccc5c4)n3n2)c1
pIC50: > 7.00
//
molecule: CN1CCN(c2ccc3nnc(Cc4ccc5ncccc5c4)n3n2)CC1
pIC50: 6.00 to 7.00
//
molecule: CNC(=O)c1cccc(-c2ccc3nnc(Cc4ccc5ncccc5c4)n3n2)c1
pIC50: 6.00 to 7.00
//
molecule: C/C=C/c1ccc2nnc(Cc3ccc4ncccc4c3)n2n1
pIC50: 6.00 to 7.00
//
molecule: Cc1ccc2nnc(Cc3c(F)cc4ncc(-c5cnn(CC(=O)O)c5)cc4c3F)n2n1
pIC50: > 7.00
//
molecule: CCc1ccc2nnc(Cc3c(F)cc4ncc(-c5cnn(C)c5)cc4c3F)n2n1
pIC50: > 7.00

Next molecule, pIC50 to be filled in.
*Q* Entry under review: `C=Cc1ccc2nnc(Cc3ccc4ncccc4c3)n2n1` . Reported pIC50?
*A* 6.00 to 7.00

---

- test_system: MET kinase (c-MET), kinase domain of human Met (Homo sapiens)
endpoint_label: IC50

compound: CCN1CC(n2cc(-c3cnc4ccc(Cc5nnc6ccc(C)nn56)cc4c3)cn2)C1 [compound 171]
reading: < 100 nM

*Q* Form field: IC50 recorded for CS(=O)(=O)c1cccc(-c2ccc3nnc(Cc4ccc5ncsc5c4)n3n2)c1 [compound 102] with MET kinase (c-MET), kinase domain of human Met (Homo sapiens) (enter value)
*A* < 100 nM

*Q* Please state recorded IC50 (tested on MET kinase (c-MET), kinase domain of human Met (Homo sapiens)) of CCC(=O)Cn1cc(-c2cnc3ccc(Cc4nnc5ccc(C)nn45)cc3c2)cn1 [compound 143]
*A* < 100 nM

---

- Test system: GTL16
- protocol_summary: GTL16 cell assay (EC50)
- Format: cell-based
- study_conditions: Homo sapiens, GTL 16; Table 1
pEC50: −log10 of the molar value.
pEC50 values, listed per item

compound: CN(C)c1cccc(-c2ccc3nnc(Cc4ccc5ncccc5c4)n3n2)c1 [compound 67]
test_system: GTL16
pEC50: 6.00 to 7.00
--
compound: CS(=O)(=O)c1ccc(-c2ccc3nnc(Cc4ccc5ncccc5c4)n3n2)cc1 [compound 5]
test_system: GTL16
pEC50: 6.00 to 7.00
--
compound: CS(=O)(=O)c1cccc(-c2ccc3nnc(Cc4ccc5ncccc5c4)n3n2)c1 [compound 49]
test_system: GTL16
pEC50: > 7.00

*Q* # get_value(readout='pEC50', item= Oc1ccc(Cc2nnc3ccc(Cl)nn23)cc1 [compound 13] )
*A* 4.30 to 5.00

*Q* // returns reported pEC50 for input O=C(NC1CCCC1)c1cccc(-c2ccc3nnc(Cc4ccc5ncccc5c4)n3n2)c1 [compound 33]
*A* 6.00 to 7.00

*Q* Consider the compound CCNC(=O)c1cccc(-c2ccc3nnc(Cc4ccc5ncccc5c4)n3n2)c1 [compound 47] and give its measured pEC50.
*A* 6.00 to 7.00

*Q* // returns reported pEC50 for input Cn1cc(-c2ccc3nnc(Cc4cc5cccnc5cc4F)n3n2)cn1 [compound 90]
*A* > 7.00

*Q* Value lookup for pEC50; key = CS(=O)(=O)Nc1cccc(-c2ccc3nnc(Cc4ccc5ncccc5c4)n3n2)c1 [compound 51]
*A* 6.00 to 7.00

*Q* Given CNS(=O)(=O)c1ccc(-c2ccc3nnc(Cc4ccc5ncccc5c4)n3n2)cc1 [compound 37] , state its recorded pEC50.
*A* > 7.00

*Q* pEC50 lookup needed for Brc1cnc2ccc(Cc3nnc4nccnn34)cc2c1 [compound 117] , thanks.
*A* > 7.00

*Q* // lookup pEC50 for O=S(=O)(c1ccc(-c2ccc3nnc(Cc4ccc5ncccc5c4)n3n2)cc1)N1CCCC1 [compound 2]
*A* 6.00 to 7.00
